B1: EPB41L3 (parent)
chain: SELGDYDPDECGSDYISEFRFAPN

- Variants of: B1
- assay-info: protein stability index of a GFP-peptide fusion (GPS, HEK-293T) (PSI 1-6); higher = more stable;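 further: lentivirally expressed fusions sorted by FACS into six bins by GFP to DsRed ratio, PSI derived from sequencing read proportions per bin multiplied by bin number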
- condition-info: c terminus: a fixed tail appended
Reported protein stability index values are given for each entry in this list.
endpoint-label: protein stability index

variant_identifier=D14A result=1.46
variant_identifier=D5T result=2.03
variant_identifier=E18P result=1.66
variant_identifier=D7C result=1.71
variant_identifier=G4N result=1.9
variant_identifier=D7G result=2.29
variant_identifier=G4V result=2.06
variant_identifier=P8I result=1.77
variant_identifier=S17C result=2.52
variant_identifier=E2F result=2.14
variant_identifier=P23W result=2.47
variant_identifier=F21T result=4.87
variant_identifier=L3Q result=2.46
variant_identifier=R20W result=3.92
variant_identifier=D7W result=2.1
variant_identifier=Y6T result=1.97
variant_identifier=E18G result=2.16
variant_identifier=F19C result=4.68
variant_identifier=C11D result=2.8
variant_identifier=G12R result=1.77
variant_identifier=D7R result=2.44
variant_identifier=D5A result=1.96

These measurements were taken from the supplement of paper PMC10567573.
